As shown below, each of these molecules has a reported inhibition value.
# SYSTEM_TESTED: Serine/threonine-protein kinase PAK 1 (Homo sapiens);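 further: values are mean PAK1 inhibition from the GSK PKIS kinase inhibitor set screen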
# STUDY_CONDITIONS: at 0.1 µM

| MOLECULE | inhibition, % |
| --- | --- |
| COc1ccc2cc(-c3c(-c4ccncc4)nc(-c4ccc([S+](C)[O-])cc4C)n3C)ccc2c1 (stereo not drawn) | -1.49 |
| O=C(Nc1n[nH]c2cc(-c3cc(F)ccc3F)ccc12)C1CC1 | 5.03 |
| COc1ccc(-c2ccc3c(NC(=O)C4CC4)n[nH]c3n2)cc1 | 2.82 |
| Fc1ccc(-c2ncn(C3CCNCC3)c2-c2ccnc(Oc3ccc(F)c(F)c3)n2)cc1 | 5.03 |
| COc1cc(Nc2ncc(-c3ccccc3)o2)cc(OC)c1OC | -0.3 |
| CCN(CC)Cc1ccc(Nc2nccc(-c3cnn4ncccc34)n2)cc1 | 5.45 |
| CS(=O)(=O)CCNCc1ccc(-c2ccc3ncnc(Nc4ccc(OCc5ccccc5)c(Br)c4)c3c2)o1 | 5.64 |
| Cc1ccc(NC(=O)c2ccoc2)cc1-c1ccc(C(=O)NCC2CC2)cc1 | 3.52 |
| NC(=O)c1ccc(Oc2nccc(-c3c(-c4ccc(F)cc4)ncn3C3CCNCC3)n2)cc1 | 10 |
| O=C1Nc2ccc(I)cc2C1=Cc1cc(Br)c(O)c(Br)c1 | 7.31 |
| O=C(NCC1CC1)c1ccc(-c2cccc(C(=O)NC3CC3)c2)cc1 | 1.6 |
| CN1CCN(CCCNc2nc3ccc(Oc4ccc(NC(=O)Nc5cc(C(F)(F)F)ccc5F)cc4)cc3[nH]2)CC1 | 3.77 |
| CN(C)CCCNc1nccc(-c2c(-c3ccc(F)cc3)nn3cc(C(F)(F)F)ccc23)n1 | -1.51 |
| O=C(Nc1n[nH]c2nc(-c3ccc(O)cc3)c(Br)cc12)C1CC1 | 7.71 |
| O=C1NC(=O)C(c2cccc(Cl)c2)=C1Nc1ccc(Cl)c(C(=O)O)c1 | 4.41 |
| COc1cc2ncn(-c3cc(OCc4ccccc4C(F)(F)F)c(C(C)=O)s3)c2cc1OC | 5.43 |
| FC(F)(F)c1cccc(Nc2nccc(-c3cnn4nc(-c5ccccc5)ccc34)n2)c1 | 6.28 |
| Nc1nccc(-c2c(-c3ccc(F)cc3)ncn2C2CCC(O)CC2)n1 (stereo not drawn) | -2.38 |

* * *

As shown below, each of these molecules has a reported inhibition value.
# SYSTEM_TESTED: Tyrosine-protein kinase ZAP-70 (Homo sapiens) (UniProt P43403)
# Sequence (P43403 whole entry): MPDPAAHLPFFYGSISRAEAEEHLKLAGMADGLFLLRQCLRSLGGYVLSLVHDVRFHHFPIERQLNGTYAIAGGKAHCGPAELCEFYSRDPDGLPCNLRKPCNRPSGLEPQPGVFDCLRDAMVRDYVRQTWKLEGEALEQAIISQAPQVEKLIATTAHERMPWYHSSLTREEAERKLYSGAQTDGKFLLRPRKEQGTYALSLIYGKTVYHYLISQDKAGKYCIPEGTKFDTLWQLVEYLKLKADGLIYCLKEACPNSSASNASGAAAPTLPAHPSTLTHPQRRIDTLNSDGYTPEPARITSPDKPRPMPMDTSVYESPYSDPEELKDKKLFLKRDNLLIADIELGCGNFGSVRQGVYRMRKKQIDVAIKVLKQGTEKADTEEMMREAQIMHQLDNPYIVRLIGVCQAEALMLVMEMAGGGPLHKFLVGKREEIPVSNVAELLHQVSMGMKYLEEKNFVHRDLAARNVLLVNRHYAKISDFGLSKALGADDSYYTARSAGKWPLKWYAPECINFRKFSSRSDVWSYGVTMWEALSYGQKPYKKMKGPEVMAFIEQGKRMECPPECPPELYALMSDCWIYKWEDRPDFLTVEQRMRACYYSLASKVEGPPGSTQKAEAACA
# STUDY_CONDITIONS: at 1 µM
# Description: GSK_PKIS: ZAP70 mean inhibition at 1 uM [Nanosyn]
PROPERTY: inhibition (%)

| STRUCTURE_AS_SMILES | SYSTEM_TESTED | TEST_VALUE |
| --- | --- | --- |
| CNC(=O)c1cncc(/C=C/c2c(C)cccc2C)c1 | Tyrosine-protein kinase ZAP-70 (Homo sapiens) (UniProt P43403) | -4.22 |
| c1ccc(-c2n[nH]cc2-c2ccnc(-c3ccc(OCCN4CCOCC4)cc3)c2)nc1 | Tyrosine-protein kinase ZAP-70 (Homo sapiens) (UniProt P43403) | 0.13 |
| COc1cc2ncn(-c3cc(OCc4cccs4)c(C(N)=O)s3)c2cc1OC | Tyrosine-protein kinase ZAP-70 (Homo sapiens) (UniProt P43403) | 3.04 |
| Fc1ccc(-c2ncn(CCCN3CCOCC3)c2-c2ccncc2)cc1 | Tyrosine-protein kinase ZAP-70 (Homo sapiens) (UniProt P43403) | 3.14 |
| COc1ccc2cc(-c3c(-c4ccncc4)nc(-c4ccc(S(C)(=O)=O)cc4C)n3C)ccc2c1 | Tyrosine-protein kinase ZAP-70 (Homo sapiens) (UniProt P43403) | 0.82 |
| O=C(Nc1n[nH]c2nc(-c3ccc(O)cc3)c(Br)cc12)C1CC1 | Tyrosine-protein kinase ZAP-70 (Homo sapiens) (UniProt P43403) | 4.28 |
| COc1cccc(/C=N/Nc2ncnc3c2cnn3-c2cccc(OC)c2)c1 | Tyrosine-protein kinase ZAP-70 (Homo sapiens) (UniProt P43403) | 2.81 |
| NC(=O)c1ccc(Oc2nccc(-c3c(-c4ccc(F)cc4)ncn3C3CCNCC3)n2)cc1 | Tyrosine-protein kinase ZAP-70 (Homo sapiens) (UniProt P43403) | 4.42 |
| Fc1ccc(-c2ncn(C3CCNCC3)c2-c2ccnc(Oc3ccc4c(c3)OCO4)n2)cc1 | Tyrosine-protein kinase ZAP-70 (Homo sapiens) (UniProt P43403) | -6.92 |
| Clc1ccc(CNc2nccc(-c3cnn4ncccc34)n2)cc1 | Tyrosine-protein kinase ZAP-70 (Homo sapiens) (UniProt P43403) | -0.35 |

* * *

# Test system: Platelet-derived growth factor receptor alpha (Homo sapiens), P16234 [V561D]
# Sequence (P16234 whole entry V561D): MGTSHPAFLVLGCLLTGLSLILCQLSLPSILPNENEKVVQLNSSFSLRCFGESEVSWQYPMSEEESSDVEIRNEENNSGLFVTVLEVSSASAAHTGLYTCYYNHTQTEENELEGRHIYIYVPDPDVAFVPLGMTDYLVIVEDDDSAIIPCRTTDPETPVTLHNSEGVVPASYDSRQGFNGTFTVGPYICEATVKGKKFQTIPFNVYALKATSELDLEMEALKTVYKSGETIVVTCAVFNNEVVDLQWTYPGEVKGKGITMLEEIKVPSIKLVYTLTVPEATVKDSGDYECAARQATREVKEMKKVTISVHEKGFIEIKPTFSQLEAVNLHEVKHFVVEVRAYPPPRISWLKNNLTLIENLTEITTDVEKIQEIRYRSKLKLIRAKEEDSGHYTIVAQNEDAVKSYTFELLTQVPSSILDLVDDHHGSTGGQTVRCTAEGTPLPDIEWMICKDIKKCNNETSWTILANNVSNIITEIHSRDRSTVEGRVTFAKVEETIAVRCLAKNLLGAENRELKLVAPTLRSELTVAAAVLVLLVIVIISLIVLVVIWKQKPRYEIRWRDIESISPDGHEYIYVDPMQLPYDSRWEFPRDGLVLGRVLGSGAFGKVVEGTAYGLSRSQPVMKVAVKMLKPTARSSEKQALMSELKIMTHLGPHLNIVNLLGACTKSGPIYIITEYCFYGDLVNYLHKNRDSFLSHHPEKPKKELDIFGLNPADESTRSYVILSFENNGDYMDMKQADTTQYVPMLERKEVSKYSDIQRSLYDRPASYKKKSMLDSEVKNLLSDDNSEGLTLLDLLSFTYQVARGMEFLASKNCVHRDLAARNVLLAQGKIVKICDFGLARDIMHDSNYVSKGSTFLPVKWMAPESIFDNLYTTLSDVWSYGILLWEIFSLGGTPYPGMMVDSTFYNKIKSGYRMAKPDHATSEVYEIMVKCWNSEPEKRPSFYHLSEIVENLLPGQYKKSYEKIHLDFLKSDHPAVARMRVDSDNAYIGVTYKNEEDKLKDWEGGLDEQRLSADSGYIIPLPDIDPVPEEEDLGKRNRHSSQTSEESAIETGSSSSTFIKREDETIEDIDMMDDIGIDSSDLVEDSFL
# STUDY_CONDITIONS: at 1 µM
Record yes (1) whenever inhibition is at 5% or higher; record no (0) when lower.

| COMPOUND | SYSTEM_TESTED | CAT |
| --- | --- | --- |
| Fc1ccc(-c2nc3n(c2-c2ccncc2)CCS3)cc1 | Platelet-derived growth factor receptor alpha (Homo sapiens), P16234 [V561D] | no (0) |
| Cc1ccc(C(=O)NC2CCC2)cc1-c1ccc(C(=O)NCC2CC2)cc1 | Platelet-derived growth factor receptor alpha (Homo sapiens), P16234 [V561D] | yes (1) |
| COc1cc(Nc2ncc3c(C)nc(-c4cccc(C(F)(F)F)c4)n3n2)cc(OC)c1OC | Platelet-derived growth factor receptor alpha (Homo sapiens), P16234 [V561D] | yes (1) |
| CCC(=O)Nc1ccc(C)c(-c2ccc(C(=O)NCC3CC3)cc2)c1 | Platelet-derived growth factor receptor alpha (Homo sapiens), P16234 [V561D] | no (0) |
| Nc1nccc(-c2c(-c3ccc(F)cc3)ncn2C2CCC(O)CC2)n1 (stereo not given) | Platelet-derived growth factor receptor alpha (Homo sapiens), P16234 [V561D] | yes (1) |

* * *

As shown below, each of these compounds has a reported inhibition value.
# SYSTEM_TESTED: Cyclin-dependent kinase 2 (Homo sapiens) (UniProt P24941)
# STUDY_CONDITIONS: at 0.1 µM

| COMPOUND | inhibition / % |
| --- | --- |
| COc1cc(Nc2ncc3c(C)nc(-c4cccc(C(F)(F)F)c4)n3n2)cc(OC)c1OC | 3.13 |
| CN(C)CCCNc1nccc(-c2c(-c3ccc(F)cc3)nn3cc(C(F)(F)F)ccc23)n1 | -2.76 |
| c1ccc(Oc2ccc(Nc3ncc(-c4ccccc4)o3)cc2)cc1 | 0.43 |
| Nc1nccc(-c2c(-c3ccc(F)cc3)ncn2C2CCC(O)CC2)n1 (stereo not drawn) | -0.46 |
| CCc1nccc2c1nc(-c1nonc1N)n2CC | 2.75 |
| CN(C)CCOc1ccc(-c2cc(-c3ccc4c(c3)CCC4=NO)c(-c3ccncc3)o2)cc1 | -0.07 |
| Fc1ccc(-c2ncn(CCCN3CCOCC3)c2-c2ccncc2)cc1 | 1.19 |
| NC(=O)c1cc(-c2ccc(F)cc2)cc(-c2ccncc2)c1N | 2.41 |
| Clc1ccc(CNc2nccc(-c3cnn4ncccc34)n2)cc1 | 4.06 |
| COc1ccc(-c2ccc3c(NC(=O)C4CC4)n[nH]c3n2)cc1 | 1.61 |
| COc1cc2ncn(-c3cc(OCc4ccccc4C(F)(F)F)c(C(C)=O)s3)c2cc1OC | 0.94 |
| NC(=O)c1ccc(Oc2nccc(-c3c(-c4ccc(F)cc4)ncn3C3CCNCC3)n2)cc1 | 3.34 |
| NS(=O)(=O)c1ccc(N/N=C2\C(=O)Nc3ccc(C(=O)NCCCn4ccnc4)cc32)cc1 | 97.4 |
| C/C(Nc1ccc(S(N)(=O)=O)cc1)=C1/C(=O)Nc2ccccc21 | 7.75 |
| CS(=O)(=O)CCNCc1cc(-c2cc3c(Nc4ccc(OCc5cccc(F)c5)c(Cl)c4)ncnc3s2)cs1 | 3.05 |
| C[C@@H](Oc1cc(-n2cnc3ccc(OCC4CCN(C)CC4)cc32)sc1C(N)=O)c1ccccc1Cl | 3.1 |
| CCS(=O)(=O)c1ccc(OC)c(Nc2ncc(-c3cccc(-c4ccccc4F)c3)o2)c1 | 1.76 |
| COc1cc2ncn(-c3cc(OCCc4ccccc4)c(C(N)=O)s3)c2cc1OC | 0.55 |
| N#Cc1ccc(Oc2nccc(-c3c(-c4ccc(F)cc4)ncn3C3CCNCC3)n2)cc1 | 0.77 |
| COc1ccc2ncn(-c3cc(O[C@H](C)c4ccccc4Cl)c(C(N)=O)s3)c2c1 | -2.63 |
| O=C(Nc1n[nH]c2nc(-c3ccco3)ccc12)C1CC1 | 3.24 |
| CN1CCN(CCCNc2nc3ccc(Oc4ccc(NC(=O)Nc5cc(C(F)(F)F)ccc5F)cc4)cc3[nH]2)CC1 | -3.51 |
| C#Cc1cccc(Nc2ncnc3ccc(OCCCCNCCS(C)(=O)=O)cc23)c1 | -1.15 |
| O=C(NCC1CC1)c1ccc(-c2cccc(C(=O)NC3CC3)c2)cc1 | 1.17 |
| COc1cc(C)c(N(C)C(=O)CN(C)C)cc1Nc1nc(Nc2cccc(F)c2C(N)=O)c2cc[nH]c2n1 | -3.41 |
| c1ccc(-c2n[nH]cc2-c2ccnc(-c3ccc(OCCN4CCOCC4)cc3)c2)nc1 | 0.41 |
| COc1ccc2cc(-c3c(-c4ccncc4)nc(-c4ccc([S+](C)[O-])cc4C)n3C)ccc2c1 (stereo not drawn) | 0.63 |
| CNC(=O)c1cncc(/C=C/c2c(C)cccc2C)c1 | -3.98 |
| Cc1ccc(C(=O)NC(C)C)cc1-c1ccc(C(=O)NCC2CC2)cc1 | 0.33 |
| Fc1ccc(-c2ncn(C3CCNCC3)c2-c2ccnc(Oc3ccc4c(c3)OCO4)n2)cc1 | 1.83 |
| CN(c1ccc(NC(=O)Nc2c(Cl)cccc2Cl)cc1)c1ccnc(Nc2cccc(CS(C)(=O)=O)c2)n1 | 3.62 |
| CCC(=O)Nc1ccc(C)c(-c2ccc(C(=O)NCC3CC3)cc2)c1 | 3.84 |
| Fc1ccc(-c2ncn(C3CCNCC3)c2-c2ccnc(Oc3ccc(F)c(F)c3)n2)cc1 | -1.17 |
| Cc1nnc(-c2ccc(C)c(-c3ccc(C(=O)NCc4ccc(Cl)cc4)cc3)c2)o1 | -1.4 |
| NC(=O)c1cc(-c2ccncc2)cc(-c2ccccc2)c1N | 2.79 |
| COc1cc(N2CCN(C(C)C)CC2)ccc1Nc1nc(Nc2ccc(F)cc2C(=O)NC[C@@H](O)CO)c2cc[nH]c2n1 | -1.75 |
| NS(=O)(=O)c1ccc(N/N=C2\C(=O)Nc3ccc(-c4cnco4)cc32)cc1 | 85.8 |
| COc1cc(Nc2ncc3c(C)nc(-c4cccc(Oc5ccccc5)c4)n3n2)cc(OC)c1OC | 2.04 |

Measured values drawn from ChEMBL document CHEMBL1961873 for this set.
